B1: glmS ribozyme (parent)
chain: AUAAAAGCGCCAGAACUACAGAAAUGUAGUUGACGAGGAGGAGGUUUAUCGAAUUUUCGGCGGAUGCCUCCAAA

Variants of: B1
Test: self-cleavage kobs at 160 uM GlcN6P; higher = faster cleavage; RNA array
Conditions: with glucosamine-6-phosphate
Fewer inactive variants are shown than the library holds.
measured.parameter: self-cleavage kobs at 160 uM GlcN6P

In the examples that follow, each entry is paired with its recorded self-cleavage kobs at 160 uM GlcN6P.
1. G35A C68A    < 1e-05 s⁻¹
2. A39G U46G A53C    5.35e-05 s⁻¹
3. G41C A48U    < 1e-05 s⁻¹
4. G29C A39C    6.14e-05 s⁻¹
5. A53C G60A    < 1e-05 s⁻¹

Problem: Form field: reported self-cleavage kobs at 160 uM GlcN6P of U55A C58U
Result: < 1e-05 s⁻¹

Problem: Form field: reported self-cleavage kobs at 160 uM GlcN6P of A15U G40A
Result: 8.75e-05 s⁻¹

Problem: Form field: reported self-cleavage kobs at 160 uM GlcN6P of C8A G38A
Result: < 1e-05 s⁻¹

Problem: Form field: reported self-cleavage kobs at 160 uM GlcN6P of U31G U55C
Result: 0.001 s⁻¹

Problem: Form field: reported self-cleavage kobs at 160 uM GlcN6P of G32U G51U
Result: < 1e-05 s⁻¹

Problem: Form field: reported self-cleavage kobs at 160 uM GlcN6P of A39U G40U C70U
Result: 0.000392 s⁻¹

Problem: Form field: reported self-cleavage kobs at 160 uM GlcN6P of C34G U56C
Result: < 1e-05 s⁻¹

Problem: Form field: reported self-cleavage kobs at 160 uM GlcN6P of G9U C10U U54G
Result: < 1e-05 s⁻¹

Problem: Form field: reported self-cleavage kobs at 160 uM GlcN6P of A33U A36C C58G U69C
Result: 7.32e-05 s⁻¹

Problem: Form field: reported self-cleavage kobs at 160 uM GlcN6P of A6U U45A A53C
Result: < 1e-05 s⁻¹

All figures here come from the supplement of paper PMC7125110.
